Assay: Half life in CD-1 mouse at 10 mg/kg, po measured upto 8 hrs by LC-MS/MS analysis
Type: ADME, organism-based
Settings: in vivo
READOUT KIND: half-life (h)
Kindly provide the numeric value in h only, without the unit symbol.

Give a short answer stating reported half-life for COc1cc2c(cc1OC)CN(CCc1ccc(NC(=O)c3cc(OC)c(OC)cc3NC(=O)c3cnc4ccccc4c3)cc1)CC2 .
1.11

---

Experiment: Apparent permeability across apical to basolateral side in human Caco-2 cells assessed as drug recovery
Assay type: ADME, cell-based
Details: read-out: Drug recovery
This listing pairs molecules with measured recovery.
Include the unit right after the number.

MOLECULE	recovery
C[C@H]1O[C@@H](O[C@H]2[C@@H](O)C[C@H](O[C@H]3[C@@H](O)C[C@H](O[C@H]4CC[C@@]5(C)[C@H](CC[C@@H]6[C@@H]5C[C@@H](O)[C@]5(C)[C@@H](C7=CC(=O)OC7)CC[C@]65O)C4)O[C@@H]3C)O[C@@H]2C)C[C@H](O)[C@@H]1O [DIGOXIN]	56%

Retrieve recovery measured for COc1cc(NC(=O)c2cc(=O)c3ccccc3o2)c(C(=O)Nc2ccc(N3CCN(Cc4cccc(-c5cccnc5)c4)CC3)cc2)cc1OC and print it.
62%

Quickly give me recorded recovery for COc1cc(NC(=O)c2cnc3ccccc3c2)c(C(=O)Nc2ccc(C3CCN(Cc4cccc(-n5ccnc5)c4)CC3)cc2)cc1OC
61%

---

Molecular target: Cytochrome P450 2C8 (Homo sapiens, UniProt P10632)
Sequence (P10632 whole entry): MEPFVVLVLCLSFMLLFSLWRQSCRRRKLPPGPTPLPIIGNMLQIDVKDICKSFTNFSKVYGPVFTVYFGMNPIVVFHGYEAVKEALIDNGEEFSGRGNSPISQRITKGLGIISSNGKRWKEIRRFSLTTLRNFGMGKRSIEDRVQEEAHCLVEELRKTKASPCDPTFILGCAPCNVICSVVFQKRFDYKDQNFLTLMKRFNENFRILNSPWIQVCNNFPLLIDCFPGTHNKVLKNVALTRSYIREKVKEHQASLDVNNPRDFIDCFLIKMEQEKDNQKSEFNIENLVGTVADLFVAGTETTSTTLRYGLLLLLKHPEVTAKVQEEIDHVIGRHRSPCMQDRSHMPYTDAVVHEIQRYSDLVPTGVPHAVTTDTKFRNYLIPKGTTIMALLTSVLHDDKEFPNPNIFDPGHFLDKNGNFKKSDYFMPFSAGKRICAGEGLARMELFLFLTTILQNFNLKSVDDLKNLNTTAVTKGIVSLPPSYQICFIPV
READOUT KIND: pIC50
For clarity, pIC50 is expressed as the negative log10 of concentration in mol/L.

Note down pIC50 recorded for COc1cc(NC(=O)c2cc(=O)c3ccccc3o2)c(C(=O)Nc2ccc(C3CCN(Cc4cccc(-n5ccnc5)c4)CC3)cc2)cc1OC
4.96

---

Target: Cytochrome P450 3A4 (Homo sapiens, UniProt P08684)
Sequence (P08684 whole entry): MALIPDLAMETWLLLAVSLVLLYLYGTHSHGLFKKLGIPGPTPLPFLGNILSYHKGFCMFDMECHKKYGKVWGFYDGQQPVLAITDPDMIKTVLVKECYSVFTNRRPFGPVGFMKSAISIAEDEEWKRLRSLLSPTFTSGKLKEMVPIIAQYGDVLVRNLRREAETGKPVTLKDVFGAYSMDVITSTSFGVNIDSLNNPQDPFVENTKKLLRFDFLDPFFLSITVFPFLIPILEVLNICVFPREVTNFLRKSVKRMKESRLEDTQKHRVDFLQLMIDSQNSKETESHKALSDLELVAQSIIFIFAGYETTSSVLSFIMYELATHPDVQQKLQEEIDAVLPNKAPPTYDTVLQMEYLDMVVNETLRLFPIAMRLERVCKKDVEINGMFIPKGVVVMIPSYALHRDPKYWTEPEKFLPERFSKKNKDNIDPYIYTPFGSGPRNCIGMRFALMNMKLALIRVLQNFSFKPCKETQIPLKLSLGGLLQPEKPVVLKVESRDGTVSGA
Test: Inhibition of CYP3A4 in human liver using luciferin-IPA as substrate microsome preincubated with compound for 10 mins followed by NADPH addition and measured after 5 mins
Type: ADME, microsomes
READOUT KIND: pIC50
Hey, just a heads up that pIC50 is the negative log base 10 of the concentration in molar.

Consider the worked cases shown below.
COc1cc(NC(=O)c2cc(=O)c3ccccc3o2)c(C(=O)Nc2ccc(N3CCN(Cc4cccc(-n5ccnc5)c4)CC3)cc2)cc1OC 6.79
COc1cc(NC(=O)c2cc(=O)c3ccccc3o2)c(C(=O)Nc2ccc(C3CCN(Cc4ccc5c(c4)OCO5)CC3)cc2)cc1OC 5.90
COc1cc(NC(=O)c2cnc3ccccc3c2)c(C(=O)Nc2ccc(N3CCN(Cc4cccc(-c5ccncc5)c4)CC3)cc2)cc1OC 6.27
COc1cc(NC(=O)c2cc(=O)c3ccccc3o2)c(C(=O)Nc2ccc(N3CCN(Cc4cccc(-c5ccncc5)c4)CC3)cc2)cc1OC 6.35
COc1cc(NC(=O)c2cnc3ccccc3c2)c(C(=O)Nc2ccc(N3CCN(Cc4cccc(-c5cccnc5)c4)CC3)cc2)cc1OC 6.55

Give Cytochrome P450 3A4 (Homo sapiens, UniProt P08684) pIC50 for the following compound: COc1cc(NC(=O)c2cc(=O)c3ccccc3o2)c(C(=O)Nc2ccc(N3CCN(Cc4ccc5c(cnn5C)c4)CC3)cc2)cc1OC
5.98

Please report the measured pIC50 for COc1cc(NC(=O)c2cc(=O)c3ccccc3o2)c(C(=O)Nc2ccc(C3CCN(Cc4cccc(-n5ccnc5)c4)CC3)cc2)cc1OC tested on Cytochrome P450 3A4 (Homo sapiens, UniProt P08684).
6.65

Provide the reported pIC50 (system: Cytochrome P450 3A4 (Homo sapiens, UniProt P08684)) for COc1cc(NC(=O)c2cnc3ccccc3c2)c(C(=O)Nc2ccc(C3CCN(Cc4cccc(-c5cccnc5)c4)CC3)cc2)cc1OC
6.61

Provide pIC50, tested on Cytochrome P450 3A4 (Homo sapiens, UniProt P08684), for COc1cc(NC(=O)c2cc(=O)c3ccccc3o2)c(C(=O)Nc2ccc(C3CCN(Cc4cccc(-n5cncn5)c4)CC3)cc2)cc1OC .
6.53

# credit: ChEMBL document CHEMBL5523718
